Tested on: OVCAR-5 ovarian
Method Summary: NCI-60 one-dose screen, 48 h (100 = growth as untreated, 0 = no growth, -100 = all killed)
Settings: 10 µM unless noted
About 83,000 compounds went through this panel and 20% of them were active in at least one assay; those are over-represented in the sample as a whole. Active and inactive are the calls of the source. How the source made its calls: active means growth percent below 10; inactive means the rest.
Reported Property: growth

In the examples that follow, each entry is paired with its recorded growth.
Cc1c2ccncc2c(C)c2c1c1ccccc1n2CCCCCC(=O)O = 109% (inactive)
O=C1/C(=C/c2ccc(-c3ccc(Cl)cc3)o2)SC(=S)N1CCc1ccc(O)cc1 = 75.2% (inactive)

Specify reported growth for the molecule shown: COc1ccc(Nc2nc(Nc3cc(C)[nH]n3)c3cc(OC)c(OC)cc3n2)cc1 -98% [20 µM] (active)

Specify reported growth for the molecule shown: Fc1ccc(/C=C/c2cc(/C=C/c3ccc(F)cc3)n(-c3cc(F)cc(F)c3)n2)cc1 95.2% (inactive)

Specify reported growth for the molecule shown: C#C[C@]1(O)CC[C@H]2[C@@H]3CC=C4c5sc(-c6ccccc6)nc5CC[C@]4(C)[C@H]3CC[C@@]21C 85.6% (inactive)

Specify reported growth for the molecule shown: O=C(NCCN1CCOCC1)c1cncnc1Nc1ccc2c(ccn2Cc2ccccn2)c1 100% (inactive)

Specify reported growth for the molecule shown: COc1cccc(/C=C2\CCc3ccccc3C2=O)c1 85.9% (inactive)

Specify reported growth for the molecule shown: COc1cc(/C=C2\C(=O)N(CCOc3cc(O)c4c(=O)cc(-c5ccccc5)oc4c3)c3ccccc32)cc(OC)c1O 103% (inactive)

Specify reported growth for the molecule shown: CCOC(=O)c1ccc2c(c1)[n+](=O)c(C(C)=O)c(C(F)(F)F)n2[O-] -1.19% (active)

* * *

System: HS 578T breast
Method Summary: NCI-60 one-dose screen, 48 h
Settings: 10 µM unless noted
Compounds without any hit were thinned out: in the full panel of roughly 83,000, 20% have a hit. Calls of active or inactive are those of the source. How the source made its calls: active means growth percent below 10; inactive means the rest.
Give your call using only these classes: active, inactive

Worked set:
c1ccc2[nH]c(-c3ccc(-c4nccc5c4[nH]c4ccccc45)cc3)nc2c1 = inactive
COC(=O)c1cc(-c2cc(OC)c(OC)c(OC)c2)[nH]c1N/N=C/c1c(Cl)cccc1Cl = active
Cn1cc(-c2nc(-c3c[nH]c4c(Cl)nccc34)cs2)c2ccccc21 = inactive

Please indicate how the test categorized CCOC(=O)/C=C1\S/C(=N\Nc2cc(=O)[nH]c3ccc(OC)cc23)N(c2ccccc2)C1=O . inactive

Please indicate how the test categorized O=C(O)COc1ccc(F)cc1 . inactive

Please indicate how the test categorized CCC(=C(c1ccc(OCCN(CC)CC)cc1)c1ccc(OCCN(CC)CC)cc1)c1ccc(Cl)cc1 . active

* * *

Tested on: HS 578T breast
Method Summary: NCI-60 one-dose screen, 48 h
Settings: 10 µM unless noted
This is part of a sample that, as a whole, favours compounds with a hit. Of some 83,000 tested, about 20% had one in any assay. Active and inactive are the calls of the source. How the source made its calls: active means growth percent below 10; inactive means the rest.
Give your call using only these classes: active, inactive

Worked set:
CC(C)(C)c1ccc(C(=O)Nc2sc3c(c2C#N)CCC(=O)C3)cc1 = inactive
COc1ccc(/C=C/C(=O)c2ccc(-n3cc(CN4CCN(c5cc6c(cc5F)c(=O)c(C(=O)O)cn6C5CC5)CC4)nn3)cc2)cc1 = inactive
O=C(CSc1nc(-c2ccccc2)cn1-c1ccc(Cl)cc1)c1ccc([N+](=O)[O-])cc1 = inactive
Nc1c(C(=O)c2ccc(Cl)cc2)sc(Nc2ccccc2)c1-c1nc2ccccc2s1 = inactive
C=CCn1c(SCC(=O)Nc2ccc(C(=O)/C=C/c3cc(OC)c(OC)c(OC)c3)cc2)nnc1-c1cc(-c2ccc(S(N)(=O)=O)cc2)nc2ccccc12 = inactive
Cn1nc(-c2ccc(Cl)cc2)nc2c(=O)n(C)c(=O)nc1-2 = active
C#CC(F)(F)[C@]1(O)CCC2C3CCC4=CC(=O)CCC4=C3[C@@H](c3ccc(N(C)C)cc3)C[C@@]21C (stereo partly drawn) = inactive

Please examine the following record next.
Please indicate how the test categorized O=C(Nc1ccccc1CNc1nc(Nc2ccc(OCCN3CCCC3)cc2)ncc1Cl)NC1CCCCC1 . inactive
